tested on: P. vulgaris 1076; assay: oral ED50, systemic infection in mice; conditions: Proteus vulgaris, 1076, in Mus musculus, read-out: oral ED50
measurementName: ED50 (mg/kg)
One number for each entry, in mg/kg.

[
  {
    "compound": "COC1=C(C(=O)O)N2C(=O)[C@@H](NC(=O)[C@H](N)c3ccccc3)[C@H]2SC1 [compound II]",
    "ED50 [mg/kg]": 25
  }
]

Provide ED50 values for the following items, in order.
1. CC1=C(C(=O)O)N2C(=O)[C@@H](NC(=O)[C@H](N)C3=CCC=CC3)[C@H]2SC1 [cephradine]
2. CC1=C(C(=O)O)N2C(=O)[C@@H](NC(=O)[C@H](N)c3ccccc3)[C@H]2SC1 [cephalexin]
3. COC1=C(C(=O)O)N2C(=O)[C@@H](NC(=O)[C@H](N)C3=CCC=CC3)[C@H]2SC1 [compound I]

RESULT:
80
45
20

###

Could you please report measured ED50 for the items listed next?
test system: Staphylococcus aureus 10B; experiment: oral ED50, systemic infection in mice; conditions: in Mus musculus, read-out: oral ED50
Answers are plain numbers, in mg/kg.

Here is how some molecules turned out for ED50.
[
  {
    "molecule": "CC1=C(C(=O)O)N2C(=O)[C@@H](NC(=O)[C@H](N)c3ccccc3)[C@H]2SC1 [cephalexin]",
    "measurementName": "ED50",
    "resultUnits": "mg/kg",
    "observed": 6.6
  },
  {
    "molecule": "COC1=C(C(=O)O)N2C(=O)[C@@H](NC(=O)[C@H](N)c3ccccc3)[C@H]2SC1 [compound II]",
    "measurementName": "ED50",
    "resultUnits": "mg/kg",
    "observed": 6
  },
  {
    "molecule": "CC1=C(C(=O)O)N2C(=O)[C@@H](NC(=O)[C@H](N)C3=CCC=CC3)[C@H]2SC1 [cephradine]",
    "measurementName": "ED50",
    "resultUnits": "mg/kg",
    "observed": 6
  }
]

As a next step, examine the molecule that follows.
QUERY: Name the recorded ED50 of the item COC1=C(C(=O)O)N2C(=O)[C@@H](NC(=O)[C@H](N)C3=CCC=CC3)[C@H]2SC1 [compound I] in your answer.
RESULT: 3.3

###

tested on: E. coli 2018; assay: oral ED50, systemic infection in mice; conditions: Escherichia coli, 2018, in Mus musculus, read-out: oral ED50
Assign ED50 to each entry below.
One number for each entry, in mg/kg.

Some compounds with known ED50 results, for comparison:
[
  {
    "structureSmilesString": "CC1=C(C(=O)O)N2C(=O)[C@@H](NC(=O)[C@H](N)c3ccccc3)[C@H]2SC1",
    "resultUnits": "mg/kg",
    "ED50": 13
  },
  {
    "structureSmilesString": "CC1=C(C(=O)O)N2C(=O)[C@@H](NC(=O)[C@H](N)C3=CCC=CC3)[C@H]2SC1",
    "resultUnits": "mg/kg",
    "ED50": 13
  },
  {
    "structureSmilesString": "COC1=C(C(=O)O)N2C(=O)[C@@H](NC(=O)[C@H](N)c3ccccc3)[C@H]2SC1",
    "resultUnits": "mg/kg",
    "ED50": 15
  }
]

For the next question, use this compound.
QUERY: Using known records, supply ED50 for `COC1=C(C(=O)O)N2C(=O)[C@@H](NC(=O)[C@H](N)C3=CCC=CC3)[C@H]2SC1`
RESULT: 3

Cited source: patent US4073902A
